B1: TMEM175 (parent)
chain: SCTIIFLASIFQLAMWTTALLHQA

Variants of: B1
Test: protein stability index of a GFP-peptide fusion (GPS, HEK-293T) (PSI 1-6); higher = more stable;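 also: lentivirally expressed fusions sorted by FACS into six bins by GFP to DsRed ratio, PSI derived from sequencing read proportions per bin multiplied by bin number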
Conditions: c terminus: a fixed tail appended
The following variants are shown together with reported protein stability index values.

| mutations | endpoint-value |
| --- | --- |
| A19E | 2.73 |
| C2K | 3.34 |
| S1R | 4.91 |

## Input Write down protein stability index measured for item A14W
## Output 2.09

## Input Write down protein stability index measured for item H22F
## Output 2.6

## Input Write down protein stability index measured for item A8S
## Output 3

## Input Write down protein stability index measured for item Q12N
## Output 3.72

## Input Write down protein stability index measured for item H22M
## Output 2.74

The values you see were collected from the supplement of paper PMC10567573.
